Biological target: P2Y purinoceptor 6 (Rattus norvegicus)
Assay: Antagonist activity at rat P2Y purinoceptor 6 expressed in human 1321N1 cells assessed as inhibition of UDP-induced increase in intracellular calcium concentration by spectrofluorimetry
Format: functional, cell-based
Activity calls are given as the source filed them. No cut-off for these calls is given here.
Readout Label: Activity

Task item: Need Activity of BP(=O)(OP(=O)(O)OC[C@H]1O[C@@H](n2cnc3c(N)ncnc32)[C@H](O)[C@@H]1O)OP(=O)(O)OP(=O)(O)OC[C@H]1O[C@@H](n2cnc3c(N)ncnc32)[C@H](O)[C@@H]1O.CCCCN(CCCC)CCCC.CCCCN(CCCC)CCCC.CCCCN(CCCC)CCCC.CCCCN(CCCC)CCCC (stereo in doubt; 6A) , thanks.
Reply: inactive

Task item: Can you check BP(=O)(OC[C@H]1O[C@@H](n2cnc3c(N)ncnc32)[C@H](O)[C@@H]1O)OP(=O)(O)OP(=O)(O)OP(=O)(O)OC[C@H]1O[C@@H](n2cnc3c(N)ncnc32)[C@H](O)[C@@H]1O.CCCCN(CCCC)CCCC.CCCCN(CCCC)CCCC.CCCCN(CCCC)CCCC.CCCCN(CCCC)CCCC (stereo in doubt; 12A) next?
Reply: inactive
